System: A549 cells
protocol-summary: MTT assay cell viability
Type: cell-based
assay-context: Homo sapiens, 72 hr treatment
pIC50: −log10 of the molar value.
reported-property: pIC50

                                   compound  readout_number
0  CN(C)CCCNc1cc(NCc2ccco2)c2noc3c2c1C(=O)c1ccccc1-3 [compound C620-0696]            4.95

Reference for the values: patent US10208028B1
